# test.system: isocitrate lyase (ICL) (Candida albicans)
# Construct: gene ICL1
# Sequence (Q9P8Q7 whole entry): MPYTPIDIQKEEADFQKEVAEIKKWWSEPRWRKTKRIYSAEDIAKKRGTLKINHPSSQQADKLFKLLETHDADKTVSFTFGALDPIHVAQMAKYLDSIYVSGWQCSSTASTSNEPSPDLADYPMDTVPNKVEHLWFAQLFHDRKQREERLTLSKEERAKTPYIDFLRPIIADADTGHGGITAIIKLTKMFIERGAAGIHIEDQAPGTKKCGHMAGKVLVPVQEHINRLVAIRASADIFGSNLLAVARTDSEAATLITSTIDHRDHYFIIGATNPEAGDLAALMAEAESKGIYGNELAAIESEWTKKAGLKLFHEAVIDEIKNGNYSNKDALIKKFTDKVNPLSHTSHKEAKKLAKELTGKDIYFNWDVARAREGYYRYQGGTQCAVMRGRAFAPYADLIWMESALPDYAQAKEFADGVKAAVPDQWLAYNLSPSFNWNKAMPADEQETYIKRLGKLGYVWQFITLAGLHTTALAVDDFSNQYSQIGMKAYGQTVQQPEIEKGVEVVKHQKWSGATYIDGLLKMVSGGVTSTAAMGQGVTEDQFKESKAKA
# experiment: positive control in enzyme assay with purified ICL, glyoxylate phenylhydrazone formation at […] nm
# Assay type: biochemical
parameter: IC50 (µM)
Field format: number, assumed µM, no unit text.

INPUT: Please look up its IC50: O=C(O)CC[N+](=O)[O-] [3-Nitropropionic acid]
OUTPUT: 11.3
